- Test system: MDA-MB-453 breast cancer cell line
- MEASUREMENT_NOTES: Growth inhibition by lapatinib (Cell Titer-Glo)
- Assay type: cell-based
- MEASUREMENT_PARAMETERS: Homo sapiens, 72 hours culture, read-out: IC50
- Experimental: The sensitivity of cell lines to EGFR/HER2 inhibitor was examined by culturing breast cancer cell lines shown in Table 3 in the presence of EGFR/HER2 inhibitor and examining growth inhibition effects on the cell lines. The breast cancer cell lines shown in Table 3 were seeded in a 96 well assay plate (#3917: Costar) at 4,000 cells/well, and cultured at 37° C. […]
pIC50: −log10 of the molar value.
QUANTITY_KIND: pIC50

[
  {
    "LINE_NOTATION": "CS(=O)(=O)CCNCc1ccc(-c2ccc3ncnc(Nc4ccc(OCc5cccc(F)c5)c(Cl)c4)c3c2)o1",
    "QUANTITY_KIND": "pIC50",
    "VALUE_MEASURED": 6.51
  }
]
